Exercise: for every item that follows, state its recorded IC50.
Molecular target: RIP2 recombinant protein (Homo sapiens)
Sequence (O43353 whole entry): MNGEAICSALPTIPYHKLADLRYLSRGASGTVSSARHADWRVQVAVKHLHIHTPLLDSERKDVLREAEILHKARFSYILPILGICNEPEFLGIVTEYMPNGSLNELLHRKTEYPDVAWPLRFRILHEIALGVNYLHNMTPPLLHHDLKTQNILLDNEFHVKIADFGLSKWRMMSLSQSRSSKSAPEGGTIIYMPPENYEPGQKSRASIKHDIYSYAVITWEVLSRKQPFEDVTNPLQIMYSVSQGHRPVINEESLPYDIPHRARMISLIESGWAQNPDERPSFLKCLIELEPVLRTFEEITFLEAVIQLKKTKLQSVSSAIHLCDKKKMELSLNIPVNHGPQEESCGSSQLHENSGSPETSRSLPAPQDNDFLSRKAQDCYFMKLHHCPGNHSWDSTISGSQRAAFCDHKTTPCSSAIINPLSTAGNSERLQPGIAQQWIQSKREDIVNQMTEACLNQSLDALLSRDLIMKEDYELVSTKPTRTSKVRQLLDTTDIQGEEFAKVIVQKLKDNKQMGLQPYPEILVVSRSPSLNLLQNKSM
Test: radiometric protein kinase assay (33PanQinase Activity Assay), in vitro peptide-based kinase assay
Conditions: ATP 3.0 μM, RIP2 15.7 nM, substrate RBER-Chktide
Method: The inhibition of RIP2 kinase was assessed using RIP2 recombinant protein in an in vitro peptide-based kinase assay. […] The assay for RIP2 contains 70 mM HEPES-NaOH pH 7.5, 3 mM MgCl2, 3 mM MnCl2, 3 μM Na-orthovanadate, 1.2 mM DTT, 50 μg/ml PEG20000, ATP (3.0 μM), [γ-^33P]-ATP (approx. 5×10^05 cpm per well), protein kinase RIP2 (15.7 nM) and substrate (RBER-Chktide), 2.0 μg/50 μl). […] Incorporation of ^33Pi (counting of “cpm”) was determined with a microplate scintillation counter. […]

Challenge: Return reported IC50. Input compound: `CN1CCN(C(=O)C2CC2)CCNc2ccn3ncc(c3n2)-c2cccc(c2)C1`
Response given: 100 to 1000 nM

Challenge: Tell me its IC50 given `CN(C)CCN1CCN(C(=O)C2CC2)CCOc2cccc(c2)-c2cnn3ccc1nc23` as the entry.
Response given: < 100 nM

Challenge: Give the measured IC50 for `O=C1COc2cncc(c2)-c2cnn3ccc(nc23)NCCCN1`
Response given: 100 to 1000 nM

Challenge: Tell me its IC50 given `O=C1CCNc2ccn3ncc(c3n2)-c2cc(F)cc(c2)OCCN1` as the entry.
Response given: 100 to 1000 nM

Challenge: Give IC50 for the following compound: `NC(=O)c1ccc2cc1OCC(=O)NCCCNc1ccn3ncc-2c3n1`
Response given: < 100 nM

Challenge: Read off the recorded IC50 for `COCCN1CCCNc2ccn3ncc(c3n2)-c2cc(Cl)cc(c2)OCC1`
Response given: < 100 nM

Challenge: Provide one value: measured IC50 of `CCCCN1CCNc2ccn3ncc(c3n2)-c2cc(cc(C(N)=O)c2)OCC1`
Response given: < 100 nM

Challenge: Tell us which IC50 value is on record for `O=C(CN1CCOCC1)N1CCNc2ccn3ncc(c3n2)-c2cccc(c2)OCC1`
Response given: < 100 nM

Challenge: Report measured IC50; entry is `Fc1cc2cc(c1)-c1cnn3ccc(nc13)NCCN(C1CCC3(CC1)OCCO3)CCO2`
Response given: 100 to 1000 nM
